Molecular target: T1, 人IL-18Rβ蛋白 (IL-18Rβ antigen) (human)
T1 chain: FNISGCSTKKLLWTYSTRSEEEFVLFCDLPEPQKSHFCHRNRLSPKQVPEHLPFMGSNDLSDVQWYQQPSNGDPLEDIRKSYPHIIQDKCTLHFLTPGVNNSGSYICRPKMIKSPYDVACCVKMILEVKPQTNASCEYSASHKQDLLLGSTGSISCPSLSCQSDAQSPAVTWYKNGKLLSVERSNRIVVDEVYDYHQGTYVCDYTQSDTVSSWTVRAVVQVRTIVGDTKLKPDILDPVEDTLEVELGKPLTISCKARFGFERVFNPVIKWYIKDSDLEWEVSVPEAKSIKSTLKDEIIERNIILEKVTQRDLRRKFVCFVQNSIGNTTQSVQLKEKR
Test: SPR (Biacore 8K), secreted Fab captured on SASA sensor, antigen injected, 1:1 fit
outcome measure: koff (s⁻¹)
Provide only the numeric value, understood in s⁻¹.

Completed entries (count: 2):
A042 Fab clone (Fab, V domains shown) VH: EVQLVESGGGLVQPGGSLRLSCAASGLNLYYSSMHWVRQAPGKGLEWVASIYSSNGRTYYADSVKGRFTISADTSKNTAYLQMNSLRAEDTAVYYCARASFSHGYGWYGLDYWGQGTLVTVSS VL: DIQMTQSPSSLSASVGDRVTITCRASQSVSSAVEWYQQKPGKAPKLLIYSASSLYSGVPSRFSGSRSGTDFTLTISSLQPEDFATYYCQQYGYHDAGLITFGQGTKVEIK ... 0.000106
A041 Fab clone (Fab, V domains shown) VH: EVQLVESGGGLVQPGGSLRLSCAASGVNLYYSSMHWVRQAPGKGLEWVASIYSSNGRTYYADSVKGRFTISADTSKNTAYLQMNSLRAEDTAVYYCARASFSHGYGWYGLDYWGQGTLVTVSS VL: DIQMTQSPSSLSASVGDRVTITCRASQSVSFAVDWYQQKPGKAPKLLIYSASSLYSGVPSRFSGSRSGTDFTLTISSLQPEDFATYYCQQYGYHDAGLITFGQGTKVEIK ... 6.35e-05

Which koff is reported for this binder? A039 Fab clone (Fab, V domains shown, Mutations against C056-WT: VL-A34D/VH-F27I) VH: EVQLVESGGGLVQPGGSLRLSCAASGINLYYSSMHWVRQAPGKGLEWVASIYSSNGRTYYADSVKGRFTISADTSKNTAYLQMNSLRAEDTAVYYCARSSFSHGYGWYGLDYWGQGTLVTVSS VL: DIQMTQSPSSLSASVGDRVTITCRASQSVSSAVDWYQQKPGKAPKLLIYSASSLYSGVPSRFSGSRSGTDFTLTISSLQPEDFATYYCQQYGYHDAGLITFGQGTKVEIK
3e-05

Try A035 Fab clone (Fab, V domains shown, Mutations against C056-WT: VL-S31F/VL-A34E/VH-F27I/VH-S99A) VH: EVQLVESGGGLVQPGGSLRLSCAASGINLYYSSMHWVRQAPGKGLEWVASIYSSNGRTYYADSVKGRFTISADTSKNTAYLQMNSLRAEDTAVYYCARASFSHGYGWYGLDYWGQGTLVTVSS VL: DIQMTQSPSSLSASVGDRVTITCRASQSVSFAVEWYQQKPGKAPKLLIYSASSLYSGVPSRFSGSRSGTDFTLTISSLQPEDFATYYCQQYGYHDAGLITFGQGTKVEIK next.
3.19e-05

Try A036 Fab clone (Fab, V domains shown) VH: EVQLVESGGGLVQPGGSLRLSCAASGINLYYSSMHWVRQAPGKGLEWVASIYSSNGRTYYADSVKGRFTISADTSKNTAYLQMNSLRAEDTAVYYCARASFSHGYGWYGLDYWGQGTLVTVSS VL: DIQMTQSPSSLSASVGDRVTITCRASQSVSSAVDWYQQKPGKAPKLLIYSASSLYSGVPSRFSGSRSGTDFTLTISSLQPEDFATYYCQQYGYHDAGLITFGQGTKVEIK next.
6.91e-05
